tested on: 8305C (Thyroid Gland Carcinoma); experiment: Bliss excess, mean over the matrix (fraction); higher = more synergy
Measured quantity: Bliss excess
Respond with the number and no other words.

Find the measured Bliss excess: item N#Cc1cnc(Nc2cc(NC[C@H]3CNCCO3)c(C(F)(F)F)cn2)cn1 [SRA737] + Nc1ccn([C@@H]2O[C@H](CO)[C@@H](O)C2(F)F)c(=O)n1 [Gemcitabine] (first compound max 10 µM, 7x7, partner max 0.3 µM) , target or system 8305C (Thyroid Gland Carcinoma).
-0.0158

Same question for CN(CCO)CC[C@H](CSc1ccccc1)Nc1ccc(S(=O)(=O)NC(=O)c2ccc(N3CCC([C@@H](O)c4ccccc4-c4ccc(Cl)cc4)CC3)cc2)cc1S(=O)(=O)C(F)(F)F [AZD4320] + C=CCn1c(=O)c2cnc(Nc3ccc(N4CCN(C)CC4)cc3)nc2n1-c1cccc(C(C)(C)O)n1 [AZD1775] (first compound max 1 µM, partner max 1 µM) please.
-0.0178

One more molecule: CN(C)CCCOc1ccc(-c2ccc3ncc4c(c3c2)n(C2CCOCC2)c(=O)n4C)cn1 [AZD0156] + CCN(CCO)CCCOc1ccc2c(Nc3cc(CC(=O)Nc4cccc(F)c4)[nH]n3)ncnc2c1 [AZD2811] (first compound max 1 µM, 7x7, partner max 1 µM)
-0.0794

Also check C[C@@H](Nc1cc(F)cc(F)c1)c1cc(C(=O)N(C)C)cc2c(=O)cc(N3CCOCC3)oc12 [AZD8186] + CC(=O)c1c(C)c2cnc(Nc3ccc(N4CCNCC4)cn3)nc2n(C2CCCC2)c1=O [Palbociclib] (first compound max 10 µM, 7x7, partner max 10 µM)
0.0133

* * *

Would you kindly list Bliss excess for each of these compounds?
system: LoVo (Colorectal Carcinoma); experiment: Bliss excess, mean over the matrix (fraction); higher = more synergy
Reply with just the number.

Quick one: Bliss excess for CCN(CCO)CCCOc1ccc2c(Nc3cc(CC(=O)Nc4cccc(F)c4)[nH]n3)ncnc2c1 [AZD2811] + C=CCn1c(=O)c2cnc(Nc3ccc(N4CCN(C)CC4)cc3)nc2n1-c1cccc(C(C)(C)O)n1 [AZD1775] (first compound max 1 µM, partner max 1 µM) ?
-0.0731

Okay, and Cc1c2c(nn1C)CSCc1cc(n(C)n1)CSc1cc(c3ccccc3c1)OCCCc1c(C(=O)O)n(C)c3c-2c(Cl)ccc13 [AZD5991] + Nc1ccn([C@@H]2O[C@H](CO)[C@@H](O)C2(F)F)c(=O)n1 [Gemcitabine] (first compound max 1 µM, 7x7, partner max 0.3 µM) ?
-0.0693

* * *

Assignment: determine reported combination Emax for the given compounds.
test system: SUP-T1 (T-Lymphoblastic Leukemia); assay: combination Emax (second highest fraction inhibited in the dose matrix, 72 h); higher = more inhibition; extreme values may be limits of the assay

What measured combination Emax goes with CCN(CCO)CCCOc1ccc2c(Nc3cc(CC(=O)Nc4cccc(F)c4)[nH]n3)ncnc2c1 [AZD2811] + C=CCn1c(=O)c2cnc(Nc3ccc(N4CCN(C)CC4)cc3)nc2n1-c1cccc(C(C)(C)O)n1 [AZD1775] (first compound max 1 µM, partner max 1 µM) ?
0.839

Another: CN(C)CCCOc1ccc(-c2ccc3ncc4c(c3c2)n(C2CCOCC2)c(=O)n4C)cn1 [AZD0156] + C[C@@H]1COCCN1C2=NC(=NC(=C2)C3(CC3)[S@](=N)(=O)C)C4=C5C=CNC5=NC=C4 [AZD6738] (first compound max 1 µM, 7x7, partner max 10 µM)
0.78

Now give it for N#Cc1cnc(Nc2cc(NC[C@H]3CNCCO3)c(C(F)(F)F)cn2)cn1 [SRA737] + CCc1c2c(nc3ccc(O)cc13)-c1cc3c(c(=O)n1C2)COC(=O)[C@]3(O)CC [SN-38] (first compound max 10 µM, 7x7, partner max 0.3 µM) too.
0.796

Similarly, Cc1c2c(nn1C)CSCc1cc(n(C)n1)CSc1cc(c3ccccc3c1)OCCCc1c(C(=O)O)n(C)c3c-2c(Cl)ccc13 [AZD5991] + C=CCn1c(=O)c2cnc(Nc3ccc(N4CCN(C)CC4)cc3)nc2n1-c1cccc(C(C)(C)O)n1 [AZD1775] (first compound max 1 µM, partner max 1 µM) ?
0.847

Next compound up: Cc1cc2ncnn2cc1Nc1ncc2c(n1)n(C1CCOCC1)c(=O)n2C [AZD7648] + C=CCn1c(=O)c2cnc(Nc3ccc(N4CCN(C)CC4)cc3)nc2n1-c1cccc(C(C)(C)O)n1 [AZD1775] (first compound max 10 µM, partner max 1 µM)
0.834

Same question, COc1cccc(OCCCN)c1-c1cc(Nc2cnc(C#N)cn2)n[nH]1 [Prexasertib] + CN(C)CCCOc1ccc(-c2ccc3ncc4c(c3c2)n(C2CCOCC2)c(=O)n4C)cn1 [AZD0156] (first compound max 1 µM, 7x7, partner max 1 µM) this time
0.821

What about CN(CCO)CC[C@H](CSc1ccccc1)Nc1ccc(S(=O)(=O)NC(=O)c2ccc(N3CCC([C@@H](O)c4ccccc4-c4ccc(Cl)cc4)CC3)cc2)cc1S(=O)(=O)C(F)(F)F [AZD4320] + C[C@@H]1COCCN1C2=NC(=NC(=C2)C3(CC3)[S@](=N)(=O)C)C4=C5C=CNC5=NC=C4 [AZD6738] (first compound max 1 µM, 7x7, partner max 10 µM) ?
0.858
